experimental target: Tyrosine-protein kinase ABL1 (Homo sapiens) (UniProt P00519)
Sequence (P00519 whole entry): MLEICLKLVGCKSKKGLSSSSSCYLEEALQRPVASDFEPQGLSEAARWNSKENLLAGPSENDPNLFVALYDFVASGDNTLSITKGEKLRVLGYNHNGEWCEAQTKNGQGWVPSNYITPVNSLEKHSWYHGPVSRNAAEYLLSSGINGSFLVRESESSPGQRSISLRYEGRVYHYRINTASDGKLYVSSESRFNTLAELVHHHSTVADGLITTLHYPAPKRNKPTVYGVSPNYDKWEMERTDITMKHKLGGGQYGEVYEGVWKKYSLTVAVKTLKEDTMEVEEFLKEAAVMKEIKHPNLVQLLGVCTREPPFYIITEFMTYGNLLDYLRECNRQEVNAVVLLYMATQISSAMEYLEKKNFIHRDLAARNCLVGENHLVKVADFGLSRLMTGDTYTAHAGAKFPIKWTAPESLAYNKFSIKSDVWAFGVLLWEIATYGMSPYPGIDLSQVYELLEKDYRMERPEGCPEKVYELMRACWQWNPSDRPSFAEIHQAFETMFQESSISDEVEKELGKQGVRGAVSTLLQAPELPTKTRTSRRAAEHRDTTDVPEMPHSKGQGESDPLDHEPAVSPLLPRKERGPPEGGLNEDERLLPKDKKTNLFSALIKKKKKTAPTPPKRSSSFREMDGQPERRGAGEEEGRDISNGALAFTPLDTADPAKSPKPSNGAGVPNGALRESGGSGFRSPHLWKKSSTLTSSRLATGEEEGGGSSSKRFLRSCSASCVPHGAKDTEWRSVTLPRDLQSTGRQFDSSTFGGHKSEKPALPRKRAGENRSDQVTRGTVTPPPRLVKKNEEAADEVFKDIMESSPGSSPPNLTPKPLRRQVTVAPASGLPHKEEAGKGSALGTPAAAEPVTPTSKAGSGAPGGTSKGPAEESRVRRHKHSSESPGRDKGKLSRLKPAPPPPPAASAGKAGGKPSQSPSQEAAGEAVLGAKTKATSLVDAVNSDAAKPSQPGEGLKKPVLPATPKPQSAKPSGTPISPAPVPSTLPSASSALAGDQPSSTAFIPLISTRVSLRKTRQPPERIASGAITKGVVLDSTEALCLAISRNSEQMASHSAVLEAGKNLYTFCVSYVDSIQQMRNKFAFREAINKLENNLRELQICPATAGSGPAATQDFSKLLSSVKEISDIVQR
condition context: Compound concentration 20.0 uM, Protein concentration 2.0 uM, Result type QC Liability
Description: Thermal Shift Assay. Domain: start/stop: S229-K512
# note: exactly 1 °C is not below, so it is no (0); use yes (1) for ΔTm strictly under it

1. c1ccc(C(OC2CCN(CCCc3nnn[nH]3)CC2)c2ccccc2)cc1	yes (1)
2. CN(C)c1ccc(-c2cc3ncccc3c(OCCCCO)n2)cc1	no (0)
3. CCc1nc(C2CCC2)n2nc(-c3ccccc3)[nH]c(=O)c12	yes (1)
4. CCc1cc2c(cc1N1CCC(N3CCOCC3)CC1)C(C)(C)c1[nH]c3cc(C#N)ccc3c1C2=O	yes (1)
5. Cc1cc([N+](=O)[O-])c(NS(=O)(=O)c2cccc(C(=O)O)c2)cc1-c1cccnc1	yes (1)
6. CS(C)(=O)=Nc1ccc(-c2ccc(-c3nc4[nH]c(O[C@@H]5CO[C@H]6[C@@H]5OC[C@H]6O)nc4cc3Cl)cc2)cc1	no (0)
7. CN1Cc2nccc(-c3cn(C)nc3-c3ccc(F)cc3)c2C1=O	no (0)
8. CC(C)(C)NC(=O)c1cncn1C1CCN(c2ccc(-c3nnc(C(F)(F)F)o3)cn2)CC1	no (0)
9. CC(C)(O)[C@H]1CC[C@H](Nc2ccc3ncc(-c4cccc(C(F)(F)F)c4)n3n2)CC1	yes (1)
